- assay-info: ^225Ac(III) chelation / labeling, iTLC-SG analysis
- Type: physicochemical
- condition-set: free chelator (2 mg/mL 3 μL; ethoxylmethyl isomers 1 mg/mL 1 μL), 30 μCi ^225Ac, 37° C. 2 h, pH ~6.5
I'd be grateful if you could share measured chelated Ac-225 (iTLC) for these entries.
Give bare numbers, in %.

Some compounds with recorded chelated Ac-225 (iTLC):
compound	output-unit	measurement
O=C(O)c1cccc(CN2CCOCCOCCN(Cc3cccc(C(=O)O)n3)CCO[C@H](CO)COCC2)n1 (single isomer, unassigned) [H2bp18c6-off Macrocycle-hydroxylmethyl isomer II]	%	99
CCOC[C@H]1COCCN(Cc2cccc(C(=O)O)n2)CCOCCOCCN(Cc2cccc(C(=O)O)n2)CCO1 (single isomer, unassigned) [H2bp18c6-off Macrocycle-ethoxylmethyl isomer I]	%	99

Alright, here's another compound for you.
Query: Can you share its chelated Ac-225 (iTLC)? I mean this compound: O=C(O)c1cccc(CN2CCOCCOCCN(Cc3cccc(C(=O)O)n3)CCO[C@@H]3CCCC[C@@H]3OCC2)n1 [H2bp18c6-cis-cyclohexyl-fused Macrocycle]
Reply: 99
